# TEST_NAME: solvent given as SMILES
# PARTICULARS: in CCCCCC
This listing pairs compounds with measured absorption maximum.
Write down the numeric answer in nm and omit the unit.

Suppose we examine the compound `CCC1(CC)c2ccccc2-c2c1c1c(c3c2C(CC)(CC)c2cc(N(c4ccccc4)c4ccccc4)ccc2-3)C(CC)(CC)c2ccccc2-1` ; what absorption maximum value has been reported?
356

Suppose we examine the compound `CCCBr` ; what absorption maximum value has been reported?
208

Suppose we examine the compound `F[B-]1(F)n2cccc2C(c2ccccc2)=C2C=CC(N3CCOCC3)=[N+]21` ; what absorption maximum value has been reported?
514

Suppose we examine the compound `CC1=CC(C)=[N+]2C1=Cc1c3ccccc3c(C#Cc3ccccc3)n1[B-]2(F)F` ; what absorption maximum value has been reported?
608

Suppose we examine the compound `O=c1oc2cc3ccccc3cc2nc1-c1ccccc1` ; what absorption maximum value has been reported?
350
